Source listed as a protein production outcome set (Wang et al. 2014).

# MEASUREMENT_NOTES: label from the status in PepcDB records

BIOPOLYMER_SEQUENCE	protein production
MPNTIRLHRVLSAPPERVYRAFLDPLALAKWLPPEGFVCKVLEHDARVGGAYKMEFLAFASGQKHAFGGRYLELVPGERIRYTDRFDDAGLPGDMITTITLAPLSCGADLSIVQEGIPDAIPPENCYLGWQQSLKQLAALVEPDMPGLEHHHHHH	not failed
MRLEKFIHLLGERGFDGALISPGTNLYYLTGLRLHEVGERLAILAVSAEGDYRFLAPSLYENVVNNFPATFWHDGENPYAKLREILEELGISKGRILIEDTMRADWLIGIMKLGKFTFQPLSSLIKELRMIKDKEEVKMMEHASRIADKVFEEILTWDLIGMKERELALKIELLIRELSDGIAFEPIVASGENAANPHHEPGERKIRKGDIIILDYGARWKGYCSDITRTIGLGELDERLVKIYEVVKDAQESAFKAVREGIKAKDVDSRAREVISKAGYGEYFIHRTGHGLGLDVHEEPYIGPDGEVILKNGMTFTIEPGIYVPGLGGVRIEDDIVVDEGKGRRLTKAERELIIL	not failed

---

# MEASUREMENT_NOTES: label from the status in PepcDB records

BIOPOLYMER_SEQUENCE	protein production
MSTKELLFSFHGRIDRKTYWIWNVIYYISIIGFGAGISKLFPAFSYLLLPIFLLVLLIPDLAITTKRWHDRDKSIYWLGLNIPLVIGRIATPMTSPMAQEPSTPQLFIASISLICGLWILIECGFLKGTSGPNKYGPEPQ	not failed
MNRQLLLDVLPAPAPALNNYIAGPNGQALAAAHALTAGRAIYLWGPAGCGRTHLLRGLSARPEAIYIDAARAAQSLRELAEADSTAPMPRLVAVDDVHRMDDARQAGLFALYNRWRESAATGRAFALAVSGDRAPMSLPLREDLRTRLGWDLVFRLDPLSDADKLAALTAQAAERGLQLAPEVINWMLTHHERDIRKLAALLDALDRYSLATGRPITIPLLRAMLADPHSQATLEHHHHHH	not failed

---

# MEASUREMENT_NOTES: label from the status in PepcDB records

BIOPOLYMER_SEQUENCE	protein production
ACKVLYSLGELNERFVPKTLKERVASIADVHFEHWNKYGDSVTATVNKADKSKDRTYKTECPLEFYDALPRVGEICYAYEIFLEPQFESCEYTEHMYLNLQTPRNYAILLRNKLPRLAEMPLFSNQGKLHVRVANAPLEVIIQNSEQLELLH	failed
MTFAWGRGSHGGAGMRIVQITDTHFSPTKAHFNGNWAPLAAWIEQSGADLVIHTGDLSVDGADRDDDIAFCMDLMREISAPMLLVPGNHDVGHLPGSLQPVNAGRLERWRRLVGPDYWMEDAGSWRLIGLDSLLMGFDDAEEEAQFDWLRTVLESRGGRRVALFAHKPLFVDAPGEGDTGYWSVRPAQRQRLYDLIATHDVALFASGHLHRAWQGKYENTSLVWGPSAAFVVGDMERDMPGERLLGAVIHQFSDTVTSEIVAIPGMTAYVLDDVVAEVYPHEAHKARKRVASLEHHHHHH	failed

---

# MEASUREMENT_NOTES: label from the status in PepcDB records

BIOPOLYMER_SEQUENCE	protein production
MTQSAPEFKVLQSIAFLAVVLQSSLLYTMNQGNVLLEQSLIMGMLFNLAKFSAPAFIFIVGFHLIRHYTKQLVYKEYISEKATHLLIPYFFWSILYLLTTNDLITLQGGIKSLLLGTAAPHLWYVIMMFQIHLLFPLLCTLFYWFQKRTENKKDIYKYMTFFACLYFLLMWFSSHYIFNGEKLTSSTILHYTDRSFLFYSFYFVMGGIAAVPLKTWRLFVMKHIPLITILFFILFLFINYELFSFYGANSIHLTVSTYLKPSMFLYIVCEIIILYVLSIMIVQRRGFLYKTLRFIGNYTYGAYLAHLFFLQLCTKFLSLFTLQENTILYSLLLFVLTAIISISTMVICSTIPFHTWITGPSPTTKMKWTKVVFRKNHKKLFKPYI	failed
MSAIDCIITAAGLSSRMGQWKMMLPWQQGTILDTSIKNALQFCSRIILVTGYRGNELHERYVNQSNITIIHNPDYAQGLLTSVKAAVPAVQTEHCFLTHGDMPTLTIDIFRKIWSLRNDGAILPLHNGIPGHPILVSKPCLMQAIKRPNITNMRQALLMGAHYSVEVENAEIILDIDTPDDFITVQKRYTKI	failed
